# system name: T1, hIL27Rα ECD antigen (human, UniProt Q6UWB1 33-516)
# T1 construct: Antigen of biopanning and PE-ELISA; also called ECD of the human IL27Rα; IL27Rα coated on the plate
# T1 sequence: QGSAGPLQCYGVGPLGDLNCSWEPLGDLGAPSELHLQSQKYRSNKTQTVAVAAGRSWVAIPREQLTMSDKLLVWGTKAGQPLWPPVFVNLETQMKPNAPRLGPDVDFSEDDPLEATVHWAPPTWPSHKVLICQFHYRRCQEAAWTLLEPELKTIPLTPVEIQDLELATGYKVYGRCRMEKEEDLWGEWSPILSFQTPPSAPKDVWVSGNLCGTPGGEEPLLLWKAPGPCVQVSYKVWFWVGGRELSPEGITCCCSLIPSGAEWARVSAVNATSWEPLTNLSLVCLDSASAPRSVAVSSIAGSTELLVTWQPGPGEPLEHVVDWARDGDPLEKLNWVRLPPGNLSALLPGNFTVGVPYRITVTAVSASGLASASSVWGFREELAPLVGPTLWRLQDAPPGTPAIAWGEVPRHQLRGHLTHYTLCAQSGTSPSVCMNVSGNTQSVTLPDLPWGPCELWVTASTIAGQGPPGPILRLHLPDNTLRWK
# procedure details: PE-ELISA, periplasmic extract on antigen-coated plate
measure: binding result

| binder | measure | result |
| --- | --- | --- |
| hIL27Ra VHH6 (VHH, Camel VHH as periplasmic extract of a phage clone in the PE-ELISA; also called anti-human IL27Rα VHH; not shown: HA/His tag from the pMECS phagemid) VHH: QVQLQESGGGLVQPGGSLRLSCAASGFSFSSYAMKWVRQAPGKGLEWVSTISSGGSSTNYADSVKGRFTISRDNAKNTLYLQLNSLKIEDTAMYYCAKAIVPTGATMERGQGTQVTVSS | binding result | binds |
| hIL27Ra VHH18 (VHH, Camel VHH as periplasmic extract of a phage clone in the PE-ELISA; also called anti-human IL27Rα VHH; not shown: HA/His tag from the pMECS phagemid) VHH: QVQLQESGGGSVQAGGSLRLSCVASGYVSCDYFLPSWYRQAPGKEREFVSIIDGTGSTSYAASVKGRFTASQDKGKNIAYLQMNSLKPEDTAMYYCKASCVRGRGISEYWGQGTQVTVSS | binding result | binds |
| hIL27Ra VHH2 (VHH, Camel VHH as periplasmic extract of a phage clone in the PE-ELISA; also called anti-human IL27Rα VHH; not shown: HA/His tag from the pMECS phagemid) VHH: QVQLQESGGGLVQPGGSLRLSCAASGFTFSLSGMSWVRQAPGKGLEWVSAISSGGASTYYTDSVKGRFTISRDNAKNILYLQLNSLKTEDTAMYYCAKGGSGYGDASRMTSPGSQGTQVTVSS | binding result | binds |
